tested on: Stress ulcer induced by water-immersion; assay: Anti-ulcer activity: Stress ulcer induced by water-immersion; format: in vivo, Wistar rats; conditions: 1 mg/kg, oral
measurement_label: Inhibition percentage (%)
Numeric only. Scale: %

- compound: "Cc1cccc(C(O)CNC(=C[N+](=O)[O-])NCCSCc2cc(C)c(CN(C)C)s2)c1 (centres unmarked)"
  units_symbol: "%"
  observed_value: 37

Output reported Inhibition percentage of the compound Cc1cc(CSCCNC(=C[N+](=O)[O-])NCC(O)c2cccc(C(F)(F)F)c2)sc1CN(C)C (centres unmarked) on Stress ulcer induced by water-immersion.
32

Output reported Inhibition percentage of the compound O=[N+]([O-])C=C(NCCCOc1cccc(CN2CCCCC2)c1)NCC(O)c1ccc(F)cc1 (centres unmarked) on Stress ulcer induced by water-immersion.
42

Output reported Inhibition percentage of the compound CN(C)Cc1ccc(CSCCNC(=C[N+](=O)[O-])NCC(O)c2ccc(O)cc2)o1 (centres unmarked) on Stress ulcer induced by water-immersion.
12

Output reported Inhibition percentage of the compound COc1cccc(C(O)CNC(=C[N+](=O)[O-])NCCSCc2cc(C)c(CN(C)C)s2)c1 (centres unmarked) on Stress ulcer induced by water-immersion.
33
